MIC values, listed per item
Test system: Enterobacter cloacae
Assay Notes: Inhibition of growth of Entero. cloacae
Type: functional
The answer is to be given in µg/mL; state only the numeric part.

Recorded results for 2 compounds are shown here.
1) CN(C)CC1CCN(c2c(F)cc3c(=O)c(C(=O)O)cn4c3c2OCC42CC2)C1 (configuration not stated); 0.8
2) CC1COc2c(N3CCN(C)CC3)c(F)cc3c(=O)c(C(=O)O)cn1c23 (configuration not stated) [OFLOXACIN]; 0.1

Prompt: Name the recorded MIC of the compound listed here: CC1COc2c(N3CCNCC3)c(F)cc3c(=O)c(C(=O)O)cn1c23 (configuration not stated) [DESMETHYL-OFLOXACIN]
Completion: 0.1

Prompt: Provide MIC value for the following compound: CCNCC1CCN(c2c(F)cc3c(=O)c(C(=O)O)cn4c3c2OCC42CC2)C1 (configuration not stated)
Completion: 0.8

Prompt: Indicate the recorded MIC value for this compound: O=C(O)c1cn2c3c(c(N4CCNCC4)c(F)cc3c1=O)OCC21CC1
Completion: 0.4

Prompt: Using the record for CC1COc2c(N3CCC(CN(C)C)C3)c(F)cc3c(=O)c(C(=O)O)cn1c23 (configuration not stated) , state its measured MIC.
Completion: 0.4

Prompt: Assign MIC to the following record: CCNCC1CCN(c2c(F)cc3c(=O)c(C(=O)O)cn4c3c2OCC4C)C1 (configuration not stated)
Completion: 0.2

Reference for the values: ChEMBL document CHEMBL1124306
